FYI, the data here is from the supplement of paper PMC10646978.

Tested on: RAW-Dual (murine macrophage reporter line)
Assay Details: NF-kB reporter (SEAP) activity fold change vs agonist alone; higher = enhanced NF-kB activity
Condition Parameters: modulator concentration 10 µM; agonist: MPLA […]
We use 1 as the dividing line for NF-kB reporter: on or above the line is class 1, below is class 0.

| Compound | Tgt | Cat |
| --- | --- | --- |
| NC(Cc1cc(I)c(Oc2cc(I)c(O)c(I)c2)c(I)c1)C(=O)O (configuration not stated) | RAW-Dual (murine macrophage reporter line) | class 0 |
| CCOC(=O)C1=CC2(CC)CCCN3CCc4c(n1c1ccccc41)C32 (configuration not stated) | RAW-Dual (murine macrophage reporter line) | class 0 |
| CC1=C(C(N)=O)C(c2cccs2)NC(=O)N1 (configuration not stated) | RAW-Dual (murine macrophage reporter line) | class 0 |
| COc1ccc(-c2oc3ccc(OC)cc3c2C(=O)Nc2ccccc2C)cc1 | RAW-Dual (murine macrophage reporter line) | class 0 |
| COc1c(C)c2c(c(O)c1C/C=C(\C)CCC(=O)O)C(=O)OC2 | RAW-Dual (murine macrophage reporter line) | class 0 |
| Cc1c(OCC(=O)OC(C)C)ccc2c3c(c(=O)oc12)CCCC3 | RAW-Dual (murine macrophage reporter line) | class 1 |
| Cl.NCCCC(N)(C(=O)O)C(F)F.O (configuration not stated) | RAW-Dual (murine macrophage reporter line) | class 1 |
| CC1(C)CC(=O)C2=C(C1)OC(N)=C(C#N)C21CCCC1 | RAW-Dual (murine macrophage reporter line) | class 0 |
| Cc1ccc(C(=O)NC2CCN(c3ccc4nncn4n3)C2)c(C)c1 (configuration not stated) | RAW-Dual (murine macrophage reporter line) | class 1 |
| CC1(C)OC(=O)C(=Cc2ccc(I)o2)C(=O)O1 | RAW-Dual (murine macrophage reporter line) | class 0 |
| O=C1C2C3C=CC(C4CC34)C2C(=O)N1N=Cc1ccc(-c2ccc(Cl)cc2)o1 (configuration not stated) | RAW-Dual (murine macrophage reporter line) | class 0 |
| Nc1c2c(nc3ccccc13)CCCC2O (configuration not stated) | RAW-Dual (murine macrophage reporter line) | class 0 |
| CCN(CC)C(=O)N1CCN(C)CC1 | RAW-Dual (murine macrophage reporter line) | class 0 |
| Cc1cccc2sc(OC3CN(C(=O)Nc4ccccc4C(F)(F)F)C3)nc12 | RAW-Dual (murine macrophage reporter line) | class 0 |

----------
Tested on: RAW-Dual (murine macrophage reporter line)
Assay Details: viability score (confluency relative to resting cells, overnight) (fraction); higher = more viable, active = viable (0.7 or more)
Condition Parameters: modulator concentration 10 µM

| Compound | viability score |
| --- | --- |
| CCOCCn1c(C2CCN(CCc3ccc(C(C)(C)C(=O)O)cc3)CC2)nc2ccccc21 | 0.521 |
| Cc1ccsc1C(=CCCN1CCC[C@@H](C(=O)O)C1)c1sccc1C | 0.997 |
| CC1=C(CC(=O)O)c2cc(F)ccc2/C1=C\c1ccc(S(C)=O)cc1 (stereo unspecified) | 1 |
| CCNC(=O)c1ccc(CN2CCc3ccccc3C2)cc1 | 1.01 |
| C=C1C(=O)OC2CC3(C)CCCC(C)C3=CC12 (stereo unspecified) | 0.73 |
| O=C(COc1ccc(Cl)cc1)Nc1ccc(OC(F)(F)F)cc1 | 0.993 |
| CC1=CCCC(=O)C2CC(C)(C)C2CC1 (stereo unspecified) | 1.05 |
| Cc1ccc(C2(O)C=CC(C)(C(Cl)(Cl)Cl)C=C2)cc1 (stereo unspecified) | 1 |
| Cc1ccc(OCCCOc2cccc3cccnc23)c(Br)c1 | 0.998 |
| Brc1ccc2ncnc(N3CCOCC3)c2c1 | 1 |
| COc1cc(C=NN2C(=O)c3cccc4cccc(c34)C2=O)cc(Br)c1OC | 1.01 |
| COc1ccc(Cc2nnc(C3CCN(S(C)(=O)=O)CC3)s2)cc1 | 0.994 |
| COc1ccc(Cl)cc1C(=O)N1CCC(S(=O)(=O)c2nncn2C)CC1 | 0.994 |
| CC(=O)N[C@@H](CS)C(=O)O | 0.995 |
| CC(C)Cn1cc(Cl)c(=O)n(CC(C)C)c1=O | 0.996 |
| COC(=O)C1=CN(CC2CCCO2)C=C(C(=O)OC)C1c1ccccc1Cl (stereo unspecified) | 0.982 |
| Nc1nc2c(ncn2C2CC(O)C(CO)O2)c(=O)[nH]1 (stereo unspecified) | 1.02 |
| CN(C)CCCN(C(=O)Cc1ccc(F)cc1)c1nc2ccc(Cl)cc2s1.Cl | 0.0615 |
| Cl.O=C1Cc2cc(CCN3CCN(c4nsc5ccccc45)CC3)c(Cl)cc2N1 | 0.983 |
| Cc1noc(C)c1CN1CCC(C(F)(F)F)CC1.Cl | 0.937 |
| O=C(c1cc(C(F)(F)F)cc(C(F)(F)F)c1)N1CCOCC1CO (stereo unspecified) | 0.999 |
| COc1cc(CNC2CCCc3ccccc32)cc(OC)c1OC (stereo unspecified) | 0.992 |
| COc1cc2nc(N3CCN(C(=O)c4ccco4)CC3)nc(N)c2cc1OC.Cl | 1 |
| CC(C)c1ccc(N(CC(=O)NCCSCc2ccc(Cl)cc2)S(C)(=O)=O)cc1 | 1.01 |
| Cc1ccc(S(=O)(=O)Nc2c3ccccc3c(O)c3c4c(oc23)CC(C)(C)CC4=O)cc1 | 1.01 |
| CN(C)Cc1ccc(S(=O)(=O)n2ccc(/C=C/C(=O)NO)c2)cc1 | 0.334 |
| N#CC(=Cc1cc(Cl)ccc1OCc1c(F)cccc1Cl)c1nn(CCO)c(N)c1C#N | 0.164 |
| Cc1ccc(CCC(=O)N2CC(N3C(=O)C4CC=CCC4C3=O)C2)cc1F (stereo unspecified) | 1 |
| O=C(NCCSC1CCOCC1)c1ccc(Cl)s1 | 1 |
| C[C@H]1[C@@H](OC(=O)CCC(=O)O)O[C@@H]2O[C@]3(C)CC[C@H]4[C@H](C)CC[C@@H]1[C@@]24OO3 | 1 |
| CC1CN(C2=NC(=O)C(=Cc3ccc(-c4ccccc4Cl)o3)S2)CC(C)O1 (stereo unspecified) | 1.02 |

----------
System: RAW-Dual (murine macrophage reporter line)
Assay Details: IRF reporter (Lucia luciferase) activity fold change vs agonist alone; higher = enhanced IRF activity
Condition Parameters: modulator concentration 10 µM; agonist: 3'3'-cGAMP 10 ug/mL
We use 1 as the dividing line for IRF reporter: on or above the line is criterion met, below is criterion not met.

| Molecule | Cat |
| --- | --- |
| O=C(Cc1ccc([N+](=O)[O-])cc1)NN=Cc1cccnc1 | criterion not met |
| CCCCN(CCCC)CC(=O)Nc1c2c(nc3ccccc13)CCC2.O=C(O)C(=O)O | criterion met |
| COC(=O)COc1ccc2oc(=O)cc(-c3cc4cccc(OC)c4o3)c2c1 | criterion not met |
| Cc1cccc(C(=O)NC(Nc2ccccc2C(F)(F)F)C(Cl)(Cl)Cl)c1 (stereo unspecified) | criterion not met |

----------
Reported IRF reporter by item:
System: RAW-Dual (murine macrophage reporter line)
Assay Details: IRF reporter (Lucia luciferase) activity fold change vs agonist alone; higher = enhanced IRF activity
Condition Parameters: modulator concentration 10 µM; agonist: 3'3'-cGAMP 10 ug/mL

| Compound | Tgt | IRF reporter |
| --- | --- | --- |
| Fc1ccc(Nc2nc(NN=Cc3ccccc3Cl)nc(N3CCCCC3)n2)cc1 | RAW-Dual (murine macrophage reporter line) | 0.992 |
| CCCOc1cccc(C=C2N=C(c3ccc(Cl)c([N+](=O)[O-])c3)OC2=O)c1 | RAW-Dual (murine macrophage reporter line) | 1.02 |
| O=C(CSc1nc(-c2ccccc2)c(-c2ccccc2)[nH]1)N1CCOCC1 | RAW-Dual (murine macrophage reporter line) | 0.897 |
| COC(=O)C1C(=O)C(=CNc2ccccc2C)C(=O)CC1(C)C (stereo unspecified) | RAW-Dual (murine macrophage reporter line) | 0.993 |
| CCCS(=O)c1ccc2nc(NC(=O)OC)[nH]c2c1 (stereo unspecified) | RAW-Dual (murine macrophage reporter line) | 0.971 |
| CCOC(=O)[C@H](CCc1ccccc1)N[C@@H](C)C(=O)N1CCC[C@H]1C(=O)O.O=C(O)/C=C\C(=O)O | RAW-Dual (murine macrophage reporter line) | 1.01 |
| CCS(=O)(=O)N1CCC(Oc2cc(C)nc(C)n2)CC1 | RAW-Dual (murine macrophage reporter line) | 0.982 |
| CC(C)(C)NCC(=O)Nc1ccc(S(N)(=O)=O)cc1 | RAW-Dual (murine macrophage reporter line) | 1.02 |
| Cc1cnc2c(c1SCC(=O)N1CCc3ccccc31)c(=O)n(C)c(=O)n2C | RAW-Dual (murine macrophage reporter line) | 1.01 |
| Cn1nc2c(c1CNS(=O)(=O)CCC(F)(F)F)CCC2 | RAW-Dual (murine macrophage reporter line) | 1.01 |
| CC(=O)Oc1cc(C(F)(F)F)ccc1C(=O)O | RAW-Dual (murine macrophage reporter line) | 0.976 |
| Cc1cccc(NC(=O)Cc2nnc(NC(=O)Nc3ccc(F)cc3)s2)c1 | RAW-Dual (murine macrophage reporter line) | 1 |
| O=C(CCCCCN1C(=O)c2cccc3cccc(c23)C1=O)NCCCO | RAW-Dual (murine macrophage reporter line) | 1.02 |
| O=c1oc2cc(O)ccc2s1 | RAW-Dual (murine macrophage reporter line) | 0.911 |
| CCC1SC(=NN=Cc2cccc3ccccc23)NC1=O (stereo unspecified) | RAW-Dual (murine macrophage reporter line) | 0.92 |
| COc1cc2c(Nc3ccc(Br)cc3F)ncnc2cc1OCC1CCN(C)CC1 | RAW-Dual (murine macrophage reporter line) | 0.975 |
| CS(=O)(=O)N1C2CCC1CC(NC(=O)NC1CCCC1)C2 (stereo unspecified) | RAW-Dual (murine macrophage reporter line) | 0.98 |
| CC1CC(=O)C2=C(C1)OC(N)=C(C#N)C2c1ccc(F)cc1 (stereo unspecified) | RAW-Dual (murine macrophage reporter line) | 0.874 |
| O=C1NC(=O)c2c1cc1ccccc1c2-c1ccccc1 | RAW-Dual (murine macrophage reporter line) | 0.887 |
| O=C(O)CCn1c2c(c3ccccc31)C[C@H](NS(=O)(=O)c1ccc(F)cc1)CC2 | RAW-Dual (murine macrophage reporter line) | 0.879 |
| COC(=O)C1=C(C)NC(=O)NC1c1ccc(Cl)c(Cl)c1 (stereo unspecified) | RAW-Dual (murine macrophage reporter line) | 0.992 |
